# assayed.system: T1, huTfR Apical Domain-Avi-His (human, biotin on the Avi tag (BirA) where captured on streptavidin)
# T1 construct: also called huTfR apical Avi-His; hTfR Apical
# T1 chain: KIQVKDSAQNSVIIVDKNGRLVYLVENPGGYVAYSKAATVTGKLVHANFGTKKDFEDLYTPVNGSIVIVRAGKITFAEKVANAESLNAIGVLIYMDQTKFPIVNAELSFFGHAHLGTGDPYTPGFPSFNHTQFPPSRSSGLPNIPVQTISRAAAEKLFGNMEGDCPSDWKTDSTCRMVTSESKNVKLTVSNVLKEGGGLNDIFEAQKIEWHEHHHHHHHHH
# assay.info: ELISA OD450, supernatant
endpoint.label: ratio over irrelevant protein (fold)
Respond with the bare value in fold.

Check out these entries, answers already filled in.
binder	unit.abbreviation	ratio over irrelevant protein
TfR7 (mouse hybridoma antibody) (antibody, V domains shown, mouse IgG in hybridoma supernatant) VH: DVQLQESGPGLVKPSQSLSLTCTVTGYSITSDYAWNWLRQFPGNKLEWMGYISYSGYSRHNPSLKSRISITRDTSKNQFFLQLNSVTSEDTATYYCARGDWDFDYWGQGTTLTVSS VL: DIVMTQSQKFMSTSVGDRVSVTCKASQNVLTNVAWYQQKPGHSPKALIYSSSSRNSGVPDRFTGSGSGTDFTLTISNVQSEDLAEYFCQQYNTYPYTFGGGTKLEIK	fold	48
TfR25 (mouse hybridoma antibody) (antibody, V domains shown, mouse IgG in hybridoma supernatant) VH: QVQLQQSGPELVKPGTSVKMSCKASGYTFTNYYIHWMKQRPGQGLEWIGWIYPGDGNTHYNERFKGKTTLTADKSSSTVYMFLTSLTSEDSAIYFCAKDKDMPGMDYWGQGTSVTVSS VL: DMVMTQSPSSLTVTAGEKVTMSCKSSQSLFNSENQKNYLTWYQQKPGQPPKLLISWASTRESGVPDRFTGSGSGTDFTLTINSVQAEDLAVYYCQNDYSYPLTFGAGTKLELK	fold	33

Using the record for TfR31 (mouse hybridoma antibody) (antibody, V domains shown, mouse IgG in hybridoma supernatant) VH: DVQLQESGPGLVKPSQSLSLTCTVTGYSITSDYAWNWIRQFPGNKLEWMGYISYSGRTSYNPSLKSRISFTRDTSKNQFFLQLNSVTTEDTATYYCAGWGYRYLEDYWGQGTSVTVSS VL: QIVLTQSPAIMSASPGEKVTMTCSASSSISSMHWYQLKPGTSPKKWIYDTSKLASGVPARFSGSGSGTSYSLTISSMEAEDAATYYCHQRSSYPWTFGGGTKLEIK , report its ratio over irrelevant protein.
20
